Origin of measurements: patent US20250382376A1

- target_of_assay: T1, human recombinant CD73 enzyme (CD73 extracellular region) (human, UniProt P21589 27-549)
- T1 sequence (looked up): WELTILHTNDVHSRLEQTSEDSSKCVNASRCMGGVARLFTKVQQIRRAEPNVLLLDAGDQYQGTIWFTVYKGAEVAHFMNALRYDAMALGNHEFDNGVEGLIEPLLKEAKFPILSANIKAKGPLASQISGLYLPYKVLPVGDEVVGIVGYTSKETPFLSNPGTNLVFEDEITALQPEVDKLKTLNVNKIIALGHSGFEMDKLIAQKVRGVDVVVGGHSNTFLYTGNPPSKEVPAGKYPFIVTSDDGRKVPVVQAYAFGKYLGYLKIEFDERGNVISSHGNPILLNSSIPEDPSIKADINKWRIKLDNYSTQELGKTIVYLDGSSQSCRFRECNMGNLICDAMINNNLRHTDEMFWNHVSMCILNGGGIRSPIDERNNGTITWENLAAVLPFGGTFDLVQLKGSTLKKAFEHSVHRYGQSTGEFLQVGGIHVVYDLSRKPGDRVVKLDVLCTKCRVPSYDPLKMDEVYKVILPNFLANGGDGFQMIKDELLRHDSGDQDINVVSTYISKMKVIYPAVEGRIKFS
- measurement_description: cell-based or functional assay
attribute_measured: IC50, inhibition of the catalytic function of recombinant human CD73 enzyme
Give the figure together with its unit, number first.

Recorded IC50, inhibition of the catalytic function of recombinant human CD73 enzyme (binder chimeric nanobody 3-D7 (Fc fusion, Human-alpaca chimeric antibody (VHH on hIgG1 Fc); Only the VHH is tied to the tested molecule; 37-39 exist for 3-D7-FC1/FC2/FC3; also called original antibody 3-D7) VHH: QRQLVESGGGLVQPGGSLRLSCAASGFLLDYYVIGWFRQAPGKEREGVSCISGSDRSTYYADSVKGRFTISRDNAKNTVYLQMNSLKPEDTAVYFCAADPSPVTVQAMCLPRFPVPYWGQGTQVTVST ): 0.0363 µg/mL
